Assay: in vivo
Conditions: rat, plasma, iv
readoutName: half-life (min)

compound="Cc1cccc(CN(C)C(=O)NC(C(=O)N[C@@H](Cc2ccccc2)[C@@H](O)C[C@H](Cc2ccccc2)NC(=O)OCc2cccnc2)C(C)C)n1 (stereo partly specified)" readoutname=half-life endpointresult=13.2

P: CC(C)c1nc(COC(=O)NC(C(=O)N[C@@H](Cc2ccccc2)C[C@H](O)[C@H](Cc2ccccc2)NC(=O)OCc2cccnc2)C(C)C)cs1 (stereo partly specified)
Q: CC(NC(=O)N(C)Cc1csc(C(C)C)n1)C(=O)N[C@@H](Cc1ccccc1)C[C@H](O)[C@H](Cc1ccccc1)NC(=O)OCc1cncs1 (stereo partly specified)
Query string: Lower value for measured half-life? Options: P , Q State your choice using its label.
Result string: P

* * *

Assay: Oral bioavailability in rat
Assay type: ADME, organism-based
Details: in vivo
readoutName: bioavailability (%)

// below: answered compounds
compound="CCc1nc(COC(=O)NC(C(=O)N[C@@H](Cc2ccccc2)[C@@H](O)C[C@H](Cc2ccccc2)NC(=O)OCc2cccnc2)C(C)C)cs1 (stereo partly drawn)" endpointresult=9.5
compound="COCc1ncc(COC(=O)NC(C(=O)N[C@@H](Cc2ccccc2)C[C@H](O)[C@H](Cc2ccccc2)NC(=O)OCc2cccnc2)C(C)C)s1 (stereo partly drawn)" endpointresult=0.6
compound="CC(C)c1nc(CN(C)C(=O)NC(C(=O)N[C@@H](Cc2ccccc2)[C@@H](O)C[C@H](Cc2ccccc2)NC(=O)OCc2cccnc2)C(C)C)cs1 (stereo partly drawn)" endpointresult=24
compound="COc1cncc(COC(=O)NC(C(=O)N[C@@H](Cc2ccccc2)C[C@H](O)[C@H](Cc2ccccc2)NC(=O)OCc2cccnc2)C(C)C)c1 (stereo partly drawn)" endpointresult=0.9
compound="CC(C)c1nc(CN(C)C(=O)NC(C(=O)N[C@@H](Cc2ccccc2)C[C@H](O)[C@H](Cc2ccccc2)NC(=O)OCc2cnco2)C(C)C)cs1 (stereo partly drawn)" endpointresult=23

P: COc1ccc(CN(C)C(=O)NC(C(=O)N[C@@H](Cc2ccccc2)[C@@H](O)C[C@H](Cc2ccccc2)NC(=O)OCc2cccnc2)C(C)C)cn1 (stereo partly drawn)
Q: CCc1cccc(CN(C)C(=O)NC(C(=O)N[C@@H](Cc2ccccc2)[C@@H](O)C[C@H](Cc2ccccc2)NC(=O)OCc2cccnc2)C(C)C)n1 (stereo partly drawn)
Query string: Response body: label of entry with the larger bioavailability; valid values P , Q . State your choice using its label.
Result string: Q

a: Cc1ncsc1CCOC(=O)NC(C(=O)N[C@@H](Cc1ccccc1)[C@@H](O)C[C@H](Cc1ccccc1)NC(=O)OCc1cccnc1)C(C)C (stereo partly drawn)
b: CC(C)c1nc(CN(C)C(=O)NC(C(=O)N[C@@H](Cc2ccccc2)C[C@H](O)[C@H](Cc2ccccc2)NC(=O)OCc2cncs2)C(C)C)cs1 (stereo partly drawn)
Query string: Response body: label of entry with the larger bioavailability; valid values a , b . State your choice using its label.
Result string: b
(b: 78%, a: 9.2%)

a: COCc1nc(CN(C)C(=O)NC(C(=O)N[C@@H](Cc2ccccc2)C[C@H](O)[C@H](Cc2ccccc2)NC(=O)OCc2cccnc2)C(C)C)cs1 (stereo partly drawn)
b: CC(C)C(NC(=O)N(C)Cc1ccccn1)C(=O)N[C@@H](Cc1ccccc1)[C@@H](O)C[C@H](Cc1ccccc1)NC(=O)OCc1cncnc1 (stereo partly drawn)
Query string: Lower value for measured bioavailability? Options: a , b State your choice using its label.
Result string: a
(a: 8%, b: 13%)

* * *

Assay: in vivo
Details: rat, plasma, po, 10 mg/kg
readoutName: Cmax (nM)

// below: answered compounds
compound="CC(C)C(NC(=O)OCc1cncc(N)c1)C(=O)N[C@@H](Cc1ccccc1)C[C@H](O)[C@H](Cc1ccccc1)NC(=O)OCc1cccnc1 (stereo not given in full)" readoutunits=nM endpointresult=140
compound="Cc1cncc(CN(C)C(=O)NC(C(=O)N[C@@H](Cc2ccccc2)C[C@H](O)[C@H](Cc2ccccc2)NC(=O)OCc2cccnc2)C(C)C)c1 (stereo not given in full)" readoutunits=nM endpointresult=690
compound="Cc1ncsc1CCOC(=O)NC(C(=O)N[C@@H](Cc1ccccc1)[C@@H](O)C[C@H](Cc1ccccc1)NC(=O)OCc1cccnc1)C(C)C (stereo not given in full)" readoutunits=nM endpointresult=410
compound="CC(C)c1nc(COC(=O)NC(C(=O)N[C@@H](Cc2ccccc2)C[C@H](O)[C@H](Cc2ccccc2)NC(=O)OCc2cccnc2)C(C)C)co1 (stereo not given in full)" readoutunits=nM endpointresult=460
compound="CC(C)c1nc(COC(=O)NC(C(=O)N[C@@H](Cc2ccccc2)C[C@H](O)[C@H](Cc2ccccc2)NC(=O)OCc2cncs2)C(C)C)cs1 (stereo not given in full)" readoutunits=nM endpointresult=40

a: Cc1ncsc1CCOC(=O)NC(C(=O)N[C@@H](Cc1ccccc1)C[C@H](O)[C@H](Cc1ccccc1)NC(=O)OCc1cccnc1)C(C)C (stereo not given in full)
b: CCc1ncc(COC(=O)NC(C(=O)N[C@@H](Cc2ccccc2)[C@@H](O)C[C@H](Cc2ccccc2)NC(=O)OCc2cccnc2)C(C)C)s1 (stereo not given in full)
Query string: Response body: label of entry with the larger Cmax; valid values a , b . State your choice using its label.
Result string: a
(a: 960 nM, b: 340 nM)

A: CC(NC(=O)OCc1csc(C(C)C)n1)C(=O)N[C@@H](Cc1ccccc1)C[C@H](O)[C@H](Cc1ccccc1)NC(=O)OCc1cncs1 (stereo not given in full)
B: CCc1ncc(COC(=O)NC(C(=O)N[C@@H](Cc2ccccc2)C[C@H](O)[C@H](Cc2ccccc2)NC(=O)OCc2cccnc2)C(C)C)s1 (stereo not given in full)
Query string: Lower value for measured Cmax? Options: A , B State your choice using its label.
Result string: B
(B: 160 nM, A: 1090 nM)

* * *

Experiment: in vivo
Details: rat, plasma, po
readoutName: Tmax (min)

// below: answered compounds
compound="COc1cncc(CN(C)C(=O)NC(C(=O)N[C@@H](Cc2ccccc2)[C@@H](O)C[C@H](Cc2ccccc2)NC(=O)OCc2cccnc2)C(C)C)c1 (stereo partly drawn)" endpointresult=6
compound="CC(C)C(NC(=O)OCc1ccccn1)C(=O)N[C@@H](Cc1ccccc1)[C@@H](O)C[C@H](Cc1ccccc1)NC(=O)OCc1cncnc1 (stereo partly drawn)" endpointresult=12
compound="Cc1cncc(CN(C)C(=O)NC(C(=O)N[C@@H](Cc2ccccc2)C[C@H](O)[C@H](Cc2ccccc2)NC(=O)OCc2cccnc2)C(C)C)c1 (stereo partly drawn)" endpointresult=6

A: COc1cncc(COC(=O)NC(C(=O)N[C@@H](Cc2ccccc2)[C@@H](O)C[C@H](Cc2ccccc2)NC(=O)OCc2cccnc2)C(C)C)c1 (stereo partly drawn)
B: CC(C)c1nc(COC(=O)NC(C(=O)N[C@@H](Cc2ccccc2)C[C@H](O)[C@H](Cc2ccccc2)NC(=O)OCc2cccnc2)C(C)C)co1 (stereo partly drawn)
C: CCc1nc(CN(C)C(=O)NC(C(=O)N[C@@H](Cc2ccccc2)C[C@H](O)[C@H](Cc2ccccc2)NC(=O)OCc2cncs2)C(C)C)cs1 (stereo partly drawn)
Query string: Descending sort on Tmax required. Could you list the labels in the order requested?
Result string: C, B, A

* * *

Assay: in vivo
Conditions: rat, plasma, iv
readoutName: half-life (min)

compound="Cc1nc(CN(C)C(=O)NC(C(=O)N[C@@H](Cc2ccccc2)C[C@H](O)[C@H](Cc2ccccc2)NC(=O)OCc2cccnc2)C(C)C)cs1 (stereo partly specified)" readoutname=half-life endpointresult=43.2
compound="CC(C)c1nc(CN(C)C(=O)NC(C(=O)N[C@@H](Cc2ccccc2)[C@@H](O)C[C@H](Cc2ccccc2)NC(=O)OCc2cncs2)C(C)C)cs1 (stereo partly specified)" readoutname=half-life endpointresult=120
compound="COc1ccc(CN(C)C(=O)NC(C(=O)N[C@@H](Cc2ccccc2)[C@@H](O)C[C@H](Cc2ccccc2)NC(=O)OCc2cccnc2)C(C)C)nc1 (stereo partly specified)" readoutname=half-life endpointresult=36
compound="COCc1ncc(COC(=O)NC(C(=O)N[C@@H](Cc2ccccc2)[C@@H](O)C[C@H](Cc2ccccc2)NC(=O)OCc2cccnc2)C(C)C)s1 (stereo partly specified)" readoutname=half-life endpointresult=22.2
compound="CC(C)c1nc(CN(C)C(=O)NC(C(=O)N[C@@H](Cc2ccccc2)C[C@H](O)[C@H](Cc2ccccc2)NC(=O)OCc2cccnc2)C(C)C)cs1 (stereo partly specified)" readoutname=half-life endpointresult=61.8

1: Cc1ncsc1CCOC(=O)NC(C(=O)N[C@@H](Cc1ccccc1)[C@@H](O)C[C@H](Cc1ccccc1)NC(=O)OCc1cccnc1)C(C)C (stereo partly specified)
2: CC(C)c1cccc(COC(=O)NC(C(=O)N[C@@H](Cc2ccccc2)[C@@H](O)C[C@H](Cc2ccccc2)NC(=O)OCc2cccnc2)C(C)C)n1 (stereo partly specified)
Query string: Lower value for measured half-life? Options: 1 , 2 State your choice using its label.
Result string: 1
(1: 27 min, 2: 78.6 min)

A: COc1ccc(CN(C)C(=O)NC(C(=O)N[C@@H](Cc2ccccc2)[C@@H](O)C[C@H](Cc2ccccc2)NC(=O)OCc2cccnc2)C(C)C)cn1 (stereo partly specified)
B: Cc1cccc(COC(=O)NC(C(=O)N[C@@H](Cc2ccccc2)C[C@H](O)[C@H](Cc2ccccc2)NC(=O)OCc2cccnc2)C(C)C)n1 (stereo partly specified)
C: COCc1nc(CN(C)C(=O)NC(C(=O)N[C@@H](Cc2ccccc2)[C@@H](O)C[C@H](Cc2ccccc2)NC(=O)OCc2cccnc2)C(C)C)cs1 (stereo partly specified)
D: CC(NC(=O)N(C)Cc1coc(C(C)C)n1)C(=O)N[C@@H](Cc1ccccc1)C[C@H](O)[C@H](Cc1ccccc1)NC(=O)OCc1cncs1 (stereo partly specified)
E: CC(C)C(NC(=O)OCc1ccccn1)C(=O)N[C@@H](Cc1ccccc1)C[C@H](O)[C@H](Cc1ccccc1)NC(=O)OCc1cncs1 (stereo partly specified)
Query string: Descending sort on half-life required. Could you list the labels in the order requested?
Result string: D, B, E, C, A
